Organism: Rattus norvegicus
assay_procedure: DrugMatrix - Regimen: Daily Repeat
Format: toxicity, organism-based, Sprague-Dawley
Design: regimen Daily Repeat, gender Male, age 6-8 weeks
setup_conditions: in vivo, po, 0 mg/kg, 2184 h, tissue Blood, route oral GAVAGE, dose level Control, time 91 day, vehicle .5 % CMC
metric: ABSOLUTE MONOCYTE
Units required after the number.

Lookup: Would you mind telling me what ABSOLUTE MONOCYTE value was observed for Cc1ccc2cc3c(ccc4ccccc43)c3c2c1CC3 [3-METHYLCHOLANTHRENE] ?
Found: 160 cells/µL

* * *

Organism: Rattus norvegicus
assay_procedure: DrugMatrix - Regimen: Daily Repeat
Assay type: toxicity, organism-based, Sprague-Dawley
Set-up: regimen Daily Repeat, gender Male, age 6-8 weeks
setup_conditions: in vivo, po, 0 mg/kg, […], tissue Plasma, route oral GAVAGE, dose level Control, time 14 day, vehicle .5 % CMC
Would you mind telling me the reported LIPASE of each entry?
Answers are plain numbers, in u/L.

Example cases with answers are listed next.
| compound | LIPASE / u/L |
| --- | --- |
| COc1ccc(C(=O)Nc2c(Cl)c[n+]([O-])cc2Cl)c2ccc(C(F)(F)F)nc12 [SCH-351591] | 14.5 |
| CCOP(=S)(OCC)Oc1nc(Cl)c(Cl)cc1Cl [CHLORPYRIFOS] | 17.33 |
| ClC(Br)Br [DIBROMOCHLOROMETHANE] | 8.33 |

Lookup: Fill blank: measured LIPASE of the compound ClC(Cl)Br [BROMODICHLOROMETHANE] is ____.
Found: 8.33
